Target: T1, TCE-24 (anti-CD3 scFv V231A; anti-TROP2 wt)
T1 construct: scFv on the Fab heavy chain
Experiment: competition ELISA, TCE on captured CD3
Where no end group is shown, it is not given here.
PROPERTY MEASURED: pIC50
Answers are plain numbers, as −log10 of the molar value.

Problem: Give its pIC50 value. Item: VYCGPEFDESVGCA (cysteine pairing not given here; also: biotinylated, site not given here, mask peptide for the CD3 scFv) [Peptide-73]
Result: 6.64
